# Tested on: U-251
# assay-explanation: NCI tumour cell line growth inhibition, 48 h
Activity calls are given as the source filed them. No stated cut-off is given here; in the data, active = GI50 up to about 1.1 µM and inactive = higher. Starred links: 1 amine or outer side, 2 acyl side, 3 side chain; linkers in the order of their positions; H or OH if unused. Non-standard residues stand in square brackets, D forms with d. Residues, ends and D or L forms follow the SMILES beside them. ξ: configuration not given here. Ile(3ξ) = CCC(C)[C@H](N)C(=O)O; X35 = C=CCC(O[*:1])C(=O)[*:2]; NMeV = CN[C@H](C(=O)O)C(C)C; NMeA = CN[C@@H](C)C(=O)O; βAla = NCCC(=O)O
Classes used: True = active, False = inactive

[
  {
    "compound": "N#C/C(=C\\c1cc(O)ccc1O)C(N)=O",
    "category": "False"
  },
  {
    "compound": "Cc1[nH]c2ncn(/N=C/c3ccccc3)c(=N)c2c1Cc1ccccc1",
    "category": "False"
  },
  {
    "compound": "N#Cc1c2c(c(N=P(c3ccccc3)(c3ccccc3)c3ccccc3)n3c1nc1ccccc13)CCCC2",
    "category": "False"
  },
  {
    "compound": "CCN(CC)c1ccc(/N=C2\\C=C(Cl)C(=O)c3ncccc32)c(C)c1",
    "category": "False"
  },
  {
    "compound": "COC1=CC(c2ccc(Br)[nH]2)=N/C1=C/NCC(C)C",
    "category": "False"
  },
  {
    "compound": "CCC1=CC(OCc2ccccc2)C(CCN(Cc2ccccc2)C(=O)OCc2ccccc2)C1 (centres undefined)",
    "category": "False"
  },
  {
    "compound": "COC(=O)C(CSSC[C@H](N/C(C)=C/C(C)=O)C(=O)OC)N/C(C)=C/C(C)=O (some centres undefined)",
    "category": "False"
  },
  {
    "compound": "CN1CCN(C2=C(Cl)C(=O)c3c(O)ccc(O)c3C2=O)CC1",
    "category": "False"
  },
  {
    "compound": "COC(=O)C1CCC(=S)N1C(=O)OCc1ccccc1 (centres undefined)",
    "category": "False"
  },
  {
    "compound": "N#Cc1nc(-c2cccs2)oc1N",
    "category": "False"
  },
  {
    "compound": "O=C(CCCCCCCCC(=O)OCCCn1cc(C(=O)NC(=O)OCc2ccccc2)c(=O)[nH]c1=O)OCCCn1cc(C(=O)NC(=O)OCc2ccccc2)c(=O)[nH]c1=O",
    "category": "False"
  },
  {
    "compound": "Cc1cc(C)nc(NS(=O)(=O)c2ccc(Nc3c4ccccc4nc4c(C(=O)Nc5ccc(S(=O)(=O)Nc6cc(C)on6)cc5)ccc(Cl)c34)cc2)n1",
    "category": "False"
  },
  {
    "compound": "CCCCCC/C=C/CCCCCCCc1cccc(O)c1C(=O)O",
    "category": "False"
  },
  {
    "compound": "C=CCC1OC(=O)CCNC(=O)[C@H](C)N(C)C(=O)[C@H](C(C)C)N(C)C(=O)[C@H](C(C)CC)NC(=O)[C@@H]2CCCN2C1=O (some centres undefined) (cyclo([Ile(3ξ)][NMeV][NMeA][βAla][X35]P))",
    "category": "False"
  },
  {
    "compound": "Cc1ccccc1C(CCCO)C(=O)O (centres undefined)",
    "category": "False"
  },
  {
    "compound": "CC(=O)OC1CCn2c1nc1c2C(=O)C=C(N2CC2)C1=O (centres undefined)",
    "category": "True"
  },
  {
    "compound": "CN(C)CC/C(=N\\Nc1ccc([N+](=O)[O-])cc1)c1ccccc1",
    "category": "False"
  },
  {
    "compound": "COc1ccc(C2=NN(C(C)=O)c3nc4ccccc4nc3O2)cc1",
    "category": "False"
  },
  {
    "compound": "CCOC(=O)CCCc1cc(O)c2c(C)c3[nH]c4ccc(Cl)cc4c3c(C)c2n1",
    "category": "False"
  },
  {
    "compound": "CCOC(=O)C(Cc1ccccc1)NC(=O)c1nc[nH]c1/N=N/N(C)C (centres undefined)",
    "category": "False"
  },
  {
    "compound": "O=c1cc2n(c(=O)[nH]1)C1OC(C(O)C1O)[C@@H]2CCO (some centres undefined)",
    "category": "False"
  },
  {
    "compound": "CCN(CC)CCNC(=O)c1nn(C)c(=S)[nH]c1=S",
    "category": "False"
  },
  {
    "compound": "CCCCC1Cc2cc(OC)ccc2-c2nc3cc(OC)ccc3n21.CCCCC1Cc2cc(OC)ccc2-c2nc3ccc(OC)cc3n21 (centres undefined)",
    "category": "False"
  },
  {
    "compound": "CC(C)OP(=O)(OC(C)C)c1ncn(-c2ccc([N+](=O)[O-])cc2)n1",
    "category": "False"
  },
  {
    "compound": "CC(C)(C)CC(C)(C)c1cc2c(O)c(c1)Cc1cc(C(C)(C)CC(C)(C)C)cc(c1O)Cc1cc(C(C)(C)CC(C)(C)C)cc(c1O)Cc1cc(C(C)(C)CC(C)(C)C)cc(c1O)Cc1cc(C(C)(C)CC(C)(C)C)cc(c1O)Cc1cc(C(C)(C)CC(C)(C)C)cc(c1O)C2",
    "category": "False"
  },
  {
    "compound": "On1c(-c2ccccc2)c(-c2c(-c3ccccc3)n(O)c3ccccc23)c2ccccc21",
    "category": "False"
  },
  {
    "compound": "N#CC1(N2CCCC2)CCC2(CC1)OCCO2",
    "category": "False"
  },
  {
    "compound": "CCOc1ccccc1NC(=O)C1=C(C)NC(C)=C(C(=O)Nc2ccccc2OCC)C1c1ccc(NC(C)=O)cc1",
    "category": "False"
  },
  {
    "compound": "Cc1ccc(S(=O)(=O)N[C@@H](Cc2ccccc2)C(=O)CCl)cc1",
    "category": "False"
  },
  {
    "compound": "COC(=O)C1=C(C(=O)OC)C23CC4CCC2(C(=O)C1O3)C4(C)C (centres undefined)",
    "category": "False"
  },
  {
    "compound": "O=C(O)CCCCn1ccc(=O)[nH]c1=O",
    "category": "False"
  },
  {
    "compound": "CCOC(=O)N/N=C(/N)Cc1ccc(Cl)cc1",
    "category": "False"
  },
  {
    "compound": "N#Cc1c(-c2cccc(Cl)c2)cc(-c2ccc(Cl)cc2)nc1N",
    "category": "False"
  },
  {
    "compound": "COc1ccc(/C=C/c2sc3ccccc3[n+]2CCCCI)cc1OC",
    "category": "False"
  },
  {
    "compound": "C=CC1(c2ccc3ccccc3c2)OCC(CC)O1 (centres undefined)",
    "category": "False"
  },
  {
    "compound": "COc1ccc(/C=C2\\N=C(c3ccccc3)N(C3Nc4cc5c(cc4S3)NC(N3C(=O)/C(=C/c4ccc(OC)cc4)N=C3c3ccccc3)S5)C2=O)cc1 (centres undefined)",
    "category": "False"
  },
  {
    "compound": "CC(CN(C)C)C(=O)c1ccccc1C(=O)O (centres undefined)",
    "category": "False"
  },
  {
    "compound": "O=C1C(Cl)=C(Cl)C(=O)N1c1ccc(F)cc1 [FLUOROIMIDE]",
    "category": "False"
  },
  {
    "compound": "CO[C@H]1C=C[C@]23c4cc5c(cc4CN(CC2O)[C@@H]3C1)OCO5 (some centres undefined)",
    "category": "False"
  }
]
